Measured values drawn from the supplement of paper PMC7125110 for this set.

B1: glmS ribozyme (parent)
chain: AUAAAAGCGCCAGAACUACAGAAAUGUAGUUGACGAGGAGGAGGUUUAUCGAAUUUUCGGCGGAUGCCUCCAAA

- Variants of: B1
- ASSAY: self-cleavage kobs at 2500 uM GlcN6P; higher = faster cleavage; RNA array
- TEST_PARAMETERS: with glucosamine-6-phosphate
This sample holds only a part of the variants without activity.
ATTRIBUTE_MEASURED: self-cleavage kobs at 2500 uM GlcN6P

Here are 4 variants together with their reported answers.
Input G9U A52U C58G . Output self-cleavage kobs at 2500 uM GlcN6P: < 1e-05 s⁻¹

Input G9U A15C G32C . Output self-cleavage kobs at 2500 uM GlcN6P: < 1e-05 s⁻¹

Input A42U A53C . Output self-cleavage kobs at 2500 uM GlcN6P: 7.29e-05 s⁻¹

Input A14G C16G U30G U49C U54A C67G C68U . Output self-cleavage kobs at 2500 uM GlcN6P: < 1e-05 s⁻¹

Continuing:
Input G44C G51U . Output self-cleavage kobs at 2500 uM GlcN6P: < 1e-05 s⁻¹

Input G9U U47A . Output self-cleavage kobs at 2500 uM GlcN6P: < 1e-05 s⁻¹

Input A42U G63U . Output self-cleavage kobs at 2500 uM GlcN6P: < 1e-05 s⁻¹

Input A33U G35C G63U . Output self-cleavage kobs at 2500 uM GlcN6P: < 1e-05 s⁻¹

Input U55A G66A . Output self-cleavage kobs at 2500 uM GlcN6P: 0.015 s⁻¹

Input A33U C71A . Output self-cleavage kobs at 2500 uM GlcN6P: 3.52e-05 s⁻¹

Input A15G G43U . Output self-cleavage kobs at 2500 uM GlcN6P: 4.65e-05 s⁻¹

Input A33U A53G G62C U65C . Output self-cleavage kobs at 2500 uM GlcN6P: < 1e-05 s⁻¹

Input A6C G35U . Output self-cleavage kobs at 2500 uM GlcN6P: < 1e-05 s⁻¹

Input A12C U46A C71A . Output self-cleavage kobs at 2500 uM GlcN6P: 6.86e-05 s⁻¹

Input C11G G59U . Output self-cleavage kobs at 2500 uM GlcN6P: 0.000106 s⁻¹

Input G7U U47A A52C A53U U55G C61U . Output self-cleavage kobs at 2500 uM GlcN6P: < 1e-05 s⁻¹

Input C16G A42G G60C C70U . Output self-cleavage kobs at 2500 uM GlcN6P: < 1e-05 s⁻¹

Input G29U A36U . Output self-cleavage kobs at 2500 uM GlcN6P: < 1e-05 s⁻¹
